The following binders are shown together with reported ELISA signal (called MFI) values.
TEST SYSTEM: T1, hROR2ECD-his (human, UniProt Q01974 34-403)
T1 construct: extracellular domain; bought, Acrobiosystems R02-H52E5; also called huROR2-his
T1 sequence (Q01974 34-403): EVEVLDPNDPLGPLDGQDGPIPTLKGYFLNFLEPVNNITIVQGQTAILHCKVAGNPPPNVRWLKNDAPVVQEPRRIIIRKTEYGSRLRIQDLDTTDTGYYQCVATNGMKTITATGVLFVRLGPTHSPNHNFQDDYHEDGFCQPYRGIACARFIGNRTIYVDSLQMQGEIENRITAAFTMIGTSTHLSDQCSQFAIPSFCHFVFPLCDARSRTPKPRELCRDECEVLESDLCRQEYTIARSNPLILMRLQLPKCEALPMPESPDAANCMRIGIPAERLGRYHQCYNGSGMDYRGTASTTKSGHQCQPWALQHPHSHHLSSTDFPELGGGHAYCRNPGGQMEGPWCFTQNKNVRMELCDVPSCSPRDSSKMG
ASSAY: ELISA, plate coated with hROR2 ECD-his
Returns: the value as a bare number; no unit string appended.

Completed entries (count: 2):
Request: Fill in: ELISA signal (called MFI) of PR001360 (antibody, human IgG1, kappa, V domains shown, fully human IgG1, kappa) VH: QVQLVESGGGVVQPGRSLRLSCAASGFTFSSYGMHWVRQAPGKGLEWVAVIWYDGSDKDSVDSVKGRFTISRDDSKNTLYLQMNSLRAEDTAVYYCAREQARSFDLWGRGTLVTVSS VL: DIQMTQSPSTLSASVGDRVTITCRASQTINNWLAWYQQKPGKAPKLLIYKASSLESGVPSRFSGSGSGTEFTLTISSLQPDDFATYYCQQYNIYSPMYTFGQGTKVEIKR is ___
Result: 0.0315

Request: Fill in: ELISA signal (called MFI) of PR001365 (antibody, human IgG1, kappa, V domains shown, fully human IgG1, kappa) VH: QVQLVQSGGGVVQPGRSLRLSCAASGFTFSSYGMHWVRQAPGKGLEWVAVIWYDGSDKDYADSVKGRFTISRDTSKNTLYLQMNSLRAEDTAVYYCAREQARSFDLWGRGTLVTVSS VL: DIQMTQSPYSLSASVGDRVTITCRASQTINNWLAWYQQKPGKAPKLLIYKASSLESGVPSRFSGSGSGTEFTLTISSLQPDDFATYYCQQYKLYSPMYTFGQGTKVEIKR is ___
Result: 0.0285

Now look at this one.
Request: Fill in: ELISA signal (called MFI) of PR001418 (antibody, human IgG1, kappa, V domains shown, fully human IgG1, kappa) VH: QVQLVESGGGVVQPGRSLRLSCAASGFTFSSYGMHWVRQAPGKGLEWVAVIWYDGSDKDYADSVKGRFTISRDTSKNTLYLQMNSLRAEDTAVYYCAREQARSFDLWGRGTLVTVSS VL: DIVMTQSPSTLSASVGDRVTITCRASQTINNWLAWYQQKPGKAPKLLIYKASSLESGVPSRFSGSGSGTEFTLTISSLQPDDFATYYCQQYNSYSPMYTFGQGTKLEIKR is ___
Result: 0.042
